experiment.description: Plasma protein binding in Sprague-Dawley rat at 1 mg/kg, iv and 2 mg/kg, po
Type: ADME, organism-based
cond: read-out: PPB (converted)
assay.readout: fraction unbound
Answers are plain numbers.

Return reported fraction unbound. Input compound: "Cc1nc(N)nc(-n2c(Nc3ccon3)nc3ccccc32)n1"
0.023

Specify measured fraction unbound for "Cc1nc(N)nc(-n2c(Nc3ccn[nH]3)nc3ccccc32)n1" .
0.028

Hi! Can you tell me fraction unbound for each of these compounds?
1. CNc1nc(C)nc(-n2c(Nc3cc[nH]n3)nc3ccccc32)n1
2. Cc1nc(N)nc(-n2c(Nc3ccn[nH]3)nc3cc(F)c(F)cc32)n1
3. Cc1nc(NCC#N)nc(-n2c(Nc3ccn[nH]3)nc3ccccc32)n1

0.008
0.01
0.016

###

experiment.description: Oral bioavailability in Sprague-Dawley rat at 2 mg/kg
Format: ADME, organism-based
cond: in vivo
assay.readout: bioavailability (%)
One number for each entry, in %.

Solved entries (count: 3):
Indicate the recorded bioavailability value for this molecule: "Cc1nc(N)nc(-n2c(Nc3ccn[nH]3)nc3ccccc32)n1"
6.3

Read the entry "CNc1nc(C)nc(-n2c(Nc3cc[nH]n3)nc3ccccc32)n1" and write its reported bioavailability.
20.7

Supply measured bioavailability of "Cc1nc(N)nc(-n2c(Nc3ccn[nH]3)nc3cc(F)c(F)cc32)n1" in your reply.
6

Turning now to a further molecule:
Let me know recorded bioavailability for "Cc1nc(NCC#N)nc(-n2c(Nc3ccn[nH]3)nc3ccccc32)n1" , thanks.
0

###

Please provide measured log10(IC50) for the entries that follow.
target.or.system: Phosphatidylinositol 4,5-bisphosphate 3-kinase catalytic subunit alpha isoform (Homo sapiens)
Sequence (P42336 whole entry, canonical isoform): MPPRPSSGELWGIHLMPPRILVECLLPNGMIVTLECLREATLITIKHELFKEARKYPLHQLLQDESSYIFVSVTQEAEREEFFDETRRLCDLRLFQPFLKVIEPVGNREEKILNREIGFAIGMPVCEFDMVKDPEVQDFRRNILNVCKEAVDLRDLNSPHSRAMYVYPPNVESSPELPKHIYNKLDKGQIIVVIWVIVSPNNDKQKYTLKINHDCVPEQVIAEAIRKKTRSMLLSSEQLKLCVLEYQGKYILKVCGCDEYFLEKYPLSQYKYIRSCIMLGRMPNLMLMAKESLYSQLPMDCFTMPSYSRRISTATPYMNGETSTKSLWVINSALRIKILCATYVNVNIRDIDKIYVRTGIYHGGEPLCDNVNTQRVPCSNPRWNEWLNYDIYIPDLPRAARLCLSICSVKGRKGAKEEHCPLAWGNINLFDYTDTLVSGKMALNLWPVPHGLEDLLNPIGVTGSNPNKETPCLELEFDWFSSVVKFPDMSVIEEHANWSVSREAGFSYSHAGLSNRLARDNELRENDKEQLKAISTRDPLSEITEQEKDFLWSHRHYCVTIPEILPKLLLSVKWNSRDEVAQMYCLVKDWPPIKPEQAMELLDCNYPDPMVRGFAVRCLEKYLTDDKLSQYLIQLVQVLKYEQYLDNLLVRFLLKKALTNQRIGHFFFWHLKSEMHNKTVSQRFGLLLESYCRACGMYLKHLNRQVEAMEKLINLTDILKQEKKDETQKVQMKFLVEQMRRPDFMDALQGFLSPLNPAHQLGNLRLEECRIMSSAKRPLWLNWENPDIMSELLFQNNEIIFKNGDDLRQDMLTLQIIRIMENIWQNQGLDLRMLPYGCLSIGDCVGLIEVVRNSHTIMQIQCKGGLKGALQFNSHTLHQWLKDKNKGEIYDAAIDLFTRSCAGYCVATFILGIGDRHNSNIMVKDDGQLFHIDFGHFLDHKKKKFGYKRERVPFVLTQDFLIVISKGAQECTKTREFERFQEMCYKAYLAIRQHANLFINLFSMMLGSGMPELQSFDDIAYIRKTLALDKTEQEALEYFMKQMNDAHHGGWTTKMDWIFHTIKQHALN
Scale type: logarithmic (base 10). Underlying IC50 unit: nM.

Guide cases for log10(IC50), answers given:
Return reported log10(IC50). Input molecule: "Cc1nc(N)nc(-n2c(Nc3ccc4cc[nH]c4c3)nc3ccccc32)n1"
2.36

Please report log10(IC50) for the following molecule: "Oc1cccc(Nc2nc3ccccc3n2-c2ncnc(NCc3ccccn3)n2)c1"
3.56

Identify measured log10(IC50) corresponding to "Cc1nc(N)nc(-n2c(Nc3ccnn3C)nc3ccccc32)n1"
3.28

Supply measured log10(IC50) of "CNC(=O)c1ccc(Nc2nc3ccccc3n2-c2nc(C)nc(N)n2)o1" in your reply.
2.72

Read off the recorded log10(IC50) for "CC(=O)Nc1cccc(Nc2nc3ccccc3n2-c2nc(C)nc(N)n2)c1"
2.80

Identify measured log10(IC50) corresponding to "CNC(=O)Nc1ccc(Nc2nc3ccccc3n2-c2nc(C)nc(N)n2)cc1"
0.78

Items follow; give log10(IC50) for each.
1. Cc1nc(N)nc(-n2c(Nc3cccc(C(N)=O)c3)nc3ccccc32)n1
2. Cc1nc(N)nc(-n2c(Nc3cn[nH]c3)nc3ccccc32)n1

1. 2.46
2. 2.66

For every listed record, write down its log10(IC50).
1. CC(=O)Nc1ccc(Nc2nc3ccccc3n2-c2nc(C)nc(N)n2)cc1
2. Cc1nc(N)nc(-n2c(Nc3n[nH]c4ccccc34)nc3ccccc32)n1

1.36
2.98

###

experiment.description: Clearance in Sprague-Dawley rat at 0.5 mg/kg, iv
Format: ADME, organism-based
Design: dose 0.5 mg/kg, route intravenous
cond: in vivo
assay.readout: clearance (mL/min/kg)
Numbers only, in mL/min/kg.

Identify measured clearance corresponding to "Cc1nc(NCC#N)nc(-n2c(Nc3ccn[nH]3)nc3ccccc32)n1"
41.7

###

target.or.system: Phosphatidylinositol 4,5-bisphosphate 3-kinase catalytic subunit delta isoform (Homo sapiens, UniProt O00329)
Sequence (O00329 whole entry, canonical isoform): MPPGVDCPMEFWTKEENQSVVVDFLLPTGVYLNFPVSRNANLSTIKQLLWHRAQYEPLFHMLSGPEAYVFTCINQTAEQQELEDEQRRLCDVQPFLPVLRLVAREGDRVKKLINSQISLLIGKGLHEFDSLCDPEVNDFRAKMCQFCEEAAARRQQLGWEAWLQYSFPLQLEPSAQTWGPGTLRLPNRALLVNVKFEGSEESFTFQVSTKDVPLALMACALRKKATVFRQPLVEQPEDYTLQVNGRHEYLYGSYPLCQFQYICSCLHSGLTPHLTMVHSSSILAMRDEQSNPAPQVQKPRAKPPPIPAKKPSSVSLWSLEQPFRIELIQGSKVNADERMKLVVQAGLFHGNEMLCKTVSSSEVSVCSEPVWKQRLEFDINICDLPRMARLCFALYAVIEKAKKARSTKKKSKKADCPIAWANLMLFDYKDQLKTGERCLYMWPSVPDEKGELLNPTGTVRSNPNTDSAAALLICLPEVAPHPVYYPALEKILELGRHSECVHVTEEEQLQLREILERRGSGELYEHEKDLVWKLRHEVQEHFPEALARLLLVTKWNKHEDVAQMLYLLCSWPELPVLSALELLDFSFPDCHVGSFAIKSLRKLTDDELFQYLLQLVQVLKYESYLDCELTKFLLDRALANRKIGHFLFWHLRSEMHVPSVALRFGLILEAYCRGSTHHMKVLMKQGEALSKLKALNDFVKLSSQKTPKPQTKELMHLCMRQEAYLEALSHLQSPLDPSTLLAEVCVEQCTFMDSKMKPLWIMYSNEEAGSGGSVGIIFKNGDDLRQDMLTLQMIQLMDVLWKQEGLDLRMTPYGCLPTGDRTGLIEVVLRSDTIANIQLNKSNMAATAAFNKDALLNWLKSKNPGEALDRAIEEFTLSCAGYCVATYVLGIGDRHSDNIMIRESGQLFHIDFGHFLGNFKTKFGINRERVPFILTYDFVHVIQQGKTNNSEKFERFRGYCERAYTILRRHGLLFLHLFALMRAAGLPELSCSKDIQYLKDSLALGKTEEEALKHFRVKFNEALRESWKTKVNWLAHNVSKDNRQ
assay.readout: IC50 (nM)
Numbers only, in nM.

Value sought for every listed compound: IC50.
1. Cc1nc(N)nc(-n2c(Nc3ccn[nH]3)nc3ccccc32)n1
2. Cc1nc(N)nc(-n2c(Nc3ccon3)nc3ccccc32)n1
3. Cc1nc(N)nc(-n2c(Nc3ccnn3C)nc3ccccc32)n1
4. CNC(=O)c1ccc(Nc2nc3ccccc3n2-c2nc(C)nc(N)n2)o1
5. Cc1nc(N)nc(-n2c(Nc3ccn(C(F)F)n3)nc3ccccc32)n1
6. CNc1nc(C)nc(-n2c(Nc3cc[nH]n3)nc3ccccc32)n1

510
1300
3300
140
530
890

I have 3 compounds here; please give me IC50 for each one.
1. Cc1nc(N)nc(-n2c(Nc3cccc(O)c3)nc3ccccc32)n1
2. Cc1nc(N)nc(-n2c(Nc3ccc4cc[nH]c4c3)nc3ccccc32)n1
3. Cc1nc(N)nc(-n2c(Nc3cccc(C(N)=O)c3)nc3ccccc32)n1

1. 3
2. 240
3. 40

// batch mode: one IC50 value per listed entry
1. CNC(=O)Nc1ccc(Nc2nc3ccccc3n2-c2nc(C)nc(N)n2)cc1
2. Cc1nc(N)nc(-n2c(NC3CCOCC3)nc3ccccc32)n1
3. Cc1nc(N)nc(-n2c(Nc3cc(O)cc(O)c3)nc3ccccc32)n1
4. C#CCNc1nc(C)nc(-n2c(Nc3ccn[nH]3)nc3ccccc32)n1

[11, 710, 0.4, 4600]

For each entry beneath this line, provide reported IC50.
1. CC(=O)Nc1cccc(Nc2nc3ccccc3n2-c2nc(C)nc(N)n2)c1
2. Cc1nc(N)nc(-n2c(Nc3ccc4cn[nH]c4c3)nc3ccccc32)n1
3. Cc1nc(N)nc(-n2c(Nc3ccn[nH]3)nc3cc(F)c(F)cc32)n1
4. Cc1nc(NCCC#N)nc(-n2c(Nc3cc[nH]n3)nc3ccccc32)n1
5. Cc1nc(N)nc(-n2c(Nc3ccccc3)nc3ccccc32)n1
6. Cc1nc(N)nc(-n2c(Nc3n[nH]c4ccccc34)nc3ccccc32)n1
7. Cc1nc(N)nc(-n2c(Nc3ccn(C)n3)nc3ccccc32)n1

1: 890; 2: 320; 3: 110; 4: 5800; 5: 360; 6: 270; 7: 4600

###

Task for the reader: assign each of the following compounds its reported half-life.
experiment.description: Half life in Sprague-Dawley rat at 1 mg/kg, iv
Assay type: ADME, organism-based
Parameters: dose 1 mg/kg, route intravenous
cond: in vivo
Answers are plain numbers, in min.

Below are worked cases with known answers.
State, in one line, measured half-life of "Cc1nc(N)nc(-n2c(Nc3ccn[nH]3)nc3ccccc32)n1"
43.2

Using the record for "CNc1nc(C)nc(-n2c(Nc3cc[nH]n3)nc3ccccc32)n1" , state its measured half-life.
33.6

Please list half-life recorded for the compound "Cc1nc(N)nc(-n2c(Nc3ccon3)nc3ccccc32)n1"
30

// below: half-life requested for another compound
Identify measured half-life associated with "Cc1nc(N)nc(-n2c(Nc3ccn[nH]3)nc3cc(F)c(F)cc32)n1"
42

###

System: DU-4475
experiment.description: Antiproliferative activity against human DU4475 harboring BRAF/APC/RB gene mutation/amplification at 1 uM after 72 hrs by Ambit assay in presence of 10% serum
Format: functional, cell-based
cond: DU-4475, 72 h
assay.readout: IC50

Tell me IC50 reported for "Cc1nc(NCC#N)nc(-n2c(Nc3cc[nH]n3)nc3ccccc32)n1"
0.53 µM

###

target.or.system: Phosphatidylinositol 4,5-bisphosphate 3-kinase catalytic subunit alpha isoform (Homo sapiens)
pIC50: −log10 of the molar value.
Tick Met if pIC50 is 7 or greater. Tick Not met if pIC50 is less than 7.

Decide: pIC50 of "Cc1nc(N)nc(-n2c(Nc3ccccc3)nc3ccccc32)n1" >= 7?
Not met

Could you tell me if the measured pIC50 of "Cc1nc(N)nc(-n2c(Nc3cc(O)cc(O)c3)nc3ccccc32)n1" reaches 7 or more?
Met

Does pIC50 meet or surpass 7 for "CCCc1nc(N)nc(-n2c(Nc3cccc(O)c3)nc3ccccc32)n1" ?
Not met

Others:
API: above_or_equal(metric=pIC50, cutoff=7) for item "Cc1nc(N)nc(-n2c(NC3CCOCC3)nc3ccccc32)n1"
Not met

Entry "CCc1nc(N)nc(-n2c(Nc3cccc(O)c3)nc3ccccc32)n1" : is its pIC50 no less than 7?
Not met

###

experiment.description: Volume of distribution at steady state in Sprague-Dawley rat at 1 mg/kg, iv and 2 mg/kg, po
Type: ADME, organism-based
cond: in vivo, read-out: Vdss
Exercise: state measured Vd for each of the molecules provided.
Numbers only, in L/kg.

Observe how each entry below is paired with its result.
Specify measured Vd for "Cc1nc(N)nc(-n2c(Nc3ccn[nH]3)nc3ccccc32)n1" .
1.1

// fetch Vd given entry "CNc1nc(C)nc(-n2c(Nc3cc[nH]n3)nc3ccccc32)n1"
0.76

Look up Vd of "Cc1nc(N)nc(-n2c(Nc3ccn[nH]3)nc3cc(F)c(F)cc32)n1" and report it.
3

---
Provide only the value of recorded Vd for "Cc1nc(N)nc(-n2c(Nc3ccon3)nc3ccccc32)n1"
1.4
